Reported pIC50 is given for each of the following compounds.
Tested on: L1210
Test: Inhibition of murine L1210 leukemia cell proliferation measured by the MTT assay
Type: functional, cell-based
Conditions: Mus musculus
Formally, pIC50 is defined as -log10 of the concentration c, with c in mol/L.

Solved entries:
• Cc1c2ccnc(C(=O)NCCN(C)C)c2cc2c3cc(OC(=O)C4C[C@@H]4c4ccccc4)ccc3n(C)c12 (some centres undefined) = 7.51
• Cc1c2ccnc(C(=O)NCCN(C)C)c2cc2c3cc(OC(=O)N(C)c4ccccc4)ccc3n(C)c12 = 5.93
• Cc1c2ccnc(C(=O)NCCN(C)C)c2cc2c3cc(OCCCCC(=O)O)ccc3n(C)c12 = 5.37

-- ask Look up and report measured pIC50 for this entry: CCCCCCCCCCCCCC(=O)Oc1ccc2c(c1)c1cc3c(C(=O)NCCN(C)C)nccc3c(C)c1n2C
-- reply 6.67

-- ask Look up and report measured pIC50 for this entry: Cc1c2ccnc(C(=O)NCCN(C)C)c2cc2c3cc(OC(=O)CCCC(=O)O)ccc3n(C)c12
-- reply 7.71

-- ask Look up and report measured pIC50 for this entry: Cc1c2ccnc(C(=O)NCCN(C)C)c2cc2c3cc(OC(=O)NCCCC(=O)O)ccc3n(C)c12
-- reply 6.28

-- ask Look up and report measured pIC50 for this entry: Cc1c2ccnc(C(=O)NCCN(C)C)c2cc2c3cc(OP(=O)(O)OCc4ccccc4)ccc3n(C)c12
-- reply 5.40

-- ask Look up and report measured pIC50 for this entry: Cc1c2c(C(=O)NCCN(C)C)nccc2c(C)c2c1c1cc(OC(=O)CCCC(=O)O)ccc1n2C
-- reply 7.47

-- ask Look up and report measured pIC50 for this entry: CCOCCC(=O)Oc1ccc2c(c1)c1cc3c(C(=O)NCCN(C)C)nccc3c(C)c1n2C
-- reply 8.24

* * *

Test system: Mus musculus
Assay: Percent median survival time of mice injected with P388 leukemia, at a intravenous compound dose of 80 mg/kg
Reported T/C is given for each of the following compounds.

Solved entries:
• Cc1c2ccnc(C(=O)NCCN(C)C)c2cc2c3cc(OC(=O)CCCC(=O)O)ccc3n(C)c12 = >582%
• Cc1c2ccnc(C(=O)NCCN(C)C)c2cc2c3cc(OC(=O)CCCCCCC(=O)O)ccc3n(C)c12 = >645%
• Cc1c2ccnc(C(=O)NCCN(C)C)c2cc2c3cc(OC(=O)CCCCCC(=O)O)ccc3n(C)c12 = >600%

-- ask Using Mus musculus as the test system, report measured T/C of Cc1c2ccnc(C(=O)NCCN(C)C)c2cc2c3cc(OC(=O)CCC(NC(=O)OC(C)(C)C)C(=O)O)ccc3n(C)c12 (centres undefined) .
-- reply >614%

* * *

System: B16
Assay: Inhibition of murine B16 melanoma cell proliferation measured by the MTT assay
Assay type: functional, cell-based
Conditions: Mus musculus
Hi! Just check whether IC50 is below 500 nM. Below gives True, equal or above gives False.

-- ask # TODO verify IC50 < 500 nM strictly for this molecule: Cc1c2ccnc(C(=O)NCCN(C)C)c2cc2c3cc(OC(=O)Cc4ccccc4)ccc3n(C)c12
-- reply True

-- ask # TODO verify IC50 < 500 nM strictly for this molecule: Cc1c2ccnc(C(=O)NCCN(C)C)c2cc2c3cc(OC(=O)N4CCOCC4)ccc3n(C)c12
-- reply False

-- ask # TODO verify IC50 < 500 nM strictly for this molecule: COc1ccc2c(c1)c1cc3c(C(=O)NCCN(C)C)nccc3c(C)c1n2C
-- reply True

-- ask # TODO verify IC50 < 500 nM strictly for this molecule: CCCCCCCCCCCCN(C)C(=O)Oc1ccc2c(c1)c1cc3c(C(=O)NCCN(C)C)nccc3c(C)c1n2C
-- reply False

* * *

Reported pIC50 is given for each of the following molecules.
Tested on: L1210
Test: Inhibition of murine L1210 leukemia cell proliferation measured by the MTT assay
Assay type: functional, cell-based
Settings: Mus musculus
Formally, pIC50 is defined as -log10 of the concentration c, with c in mol/L.

Solved entries:
* CCCCCCCCC(=O)Oc1ccc2c(c1)c1cc3c(C(=O)NCCN(C)C)nccc3c(C)c1n2C | 7.51
* Cc1c2ccnc(C(=O)NCCN(C)C)c2cc2c3cc(OC(=O)N4CCN(C(c5ccccc5)c5ccccc5)CC4)ccc3n(C)c12 | 6.79
* Cc1c2ccnc(C(=O)NCCN(C)C)c2cc2c3cc(OCC(O)CO)ccc3n(C)c12 (stereo not drawn) | 6.30
* Cc1c2ccnc(C(=O)NCCN(C)C)c2cc2c3cc(OC(=O)N4CCN(C)CC4)ccc3n(C)c12 | 5.89
* Cc1c2ccnc(C(=O)NCCN(C)C)c2cc2c3cc(OC(=O)c4cccnc4)ccc3n(C)c12 | 7.13

-- ask Using L1210 as the test system, report measured pIC50 of COc1cccc2c1C(=O)c1c(O)c3c(c(O)c1C2=O)C[C@@](O)(C(=O)CO)C[C@@H]3O[C@H]1C[C@H](N)[C@H](O)[C@H](C)O1 .
-- reply 7.46

-- ask Using L1210 as the test system, report measured pIC50 of Cc1c2ccnc(C(=O)NCCN(C)C)c2cc2c3cc(OC(=O)CCCCC(=O)O)ccc3n(C)c12 .
-- reply 7.68

-- ask Using L1210 as the test system, report measured pIC50 of Cc1c2ccnc(C(=O)NCCN(C)C)c2cc2c3cc(O)ccc3n(C)c12 .
-- reply 7.88

* * *

Test system: B16
Experiment: Inhibition of murine B16 melanoma cell proliferation measured by the MTT assay
Assay type: functional, cell-based
Conditions: Mus musculus
Reported IC50 is given for each of the following compounds.
All answers are understood in nM, so give the number only.

• Cc1c2ccnc(C(=O)NCCN(C)C)c2cc2c3cc(OC(=O)C4C[C@@H]4c4ccccc4)ccc3n(C)c12 (stereo partly drawn) = 14.1
• Cc1c2c(C(=O)NCCN(C)C)nccc2c(C)c2c1c1cc(OC(=O)CCCC(=O)O)ccc1n2C = 1.4
• COc1cccc2c1C(=O)c1c(O)c3c(c(O)c1C2=O)C[C@@](O)(C(=O)CO)C[C@@H]3O[C@H]1C[C@H](N)[C@H](O)[C@H](C)O1 [DOXORUBICIN] = 7.6
• Cc1c2ccnc(C(=O)NCCN(C)C)c2cc2c3cc(OC(=O)CCC(=O)OCc4ccccc4)ccc3n(C)c12 = 9.9
• Cc1c2ccnc(C(=O)NCCN(C)C)c2cc2c3cc(OC(=O)CCCCCC(=O)O)ccc3n(C)c12 = 3.2
• Cc1c2ccnc(C(=O)NCCN(C)C)c2cc2c3cc(OC(=O)NCCCC(=O)OCc4ccccc4)ccc3n(C)c12 = 29.4
• CCCCCCCCC(=O)Oc1ccc2c(c1)c1cc3c(C(=O)NCCN(C)C)nccc3c(C)c1n2C = 20.8

Alright, here's another compound for you.
-- ask Look up and report measured IC50 for this entry: Cc1c2ccnc(C(=O)NCCN(C)C)c2cc2c3cc(OC(=O)N(C)c4ccccc4)ccc3n(C)c12
-- reply 1370

* * *

Reported T/C is given for each of the following compounds.
Test system: Mus musculus
Test: Percent median survival time of mice injected with P388 leukemia, at a subcutaneous compound dose of 10 mg/kg
Type: functional
All answers are understood in %, so give the number only.

Solved entries:
- Cc1c2ccnc(C(=O)NCCN(C)C)c2cc2c3cc(OC(=O)NCCCC(=O)OCc4ccccc4)ccc3n(C)c12: 93
- Cc1c2ccnc(C(=O)NCCN(C)C)c2cc2c3cc(OC(=O)CCC(=O)OCc4ccccc4)ccc3n(C)c12: 111
- Cc1c2ccnc(C(=O)NCCN(C)C)c2cc2c3cc(OC(=O)CCCCC(=O)OCc4ccccc4)ccc3n(C)c12: 128

Alright, here's another compound for you.
-- ask Using Mus musculus as the test system, report measured T/C of CCCCCCCCCCCCN(C)C(=O)Oc1ccc2c(c1)c1cc3c(C(=O)NCCN(C)C)nccc3c(C)c1n2C .
-- reply 103

* * *

System: Mus musculus
Assay: Long-term survivors among 7 mice infected with B16 melanoma, scored on day 90 at 20 mg/kg dose on day 1
Assay type: functional
QUANTITY_KIND: LTS
Enter the number alone.

Solved entries:
- COC(=O)CCCC(=O)Oc1ccc2c(c1)c1cc3c(C(=O)NCCN(C)C)nccc3c(C)c1n2C: 0
- Cc1c2ccnc(C(=O)NCCN(C)C)c2cc2c3cc(OC(=O)CCCCC(=O)OCc4ccccc4)ccc3n(C)c12: 0
- Cc1c2ccnc(C(=O)NCCN(C)C)c2cc2c3cc(OC(=O)NCCCC(=O)OCc4ccccc4)ccc3n(C)c12: 0

Alright, here's another molecule for you.
-- ask Look up and report measured LTS for this entry: CCOCCC(=O)Oc1ccc2c(c1)c1cc3c(C(=O)NCCN(C)C)nccc3c(C)c1n2C
-- reply 0

* * *

System: Mus musculus
Assay: Percent median survival time of mice injected with B16 melanoma, at a intraperitoneal compound dose of 20 mg/kg
QUANTITY_KIND: T/C (%)
All answers are understood in %, so give the number only.

Solved entries:
* Cc1c2ccnc(C(=O)NCCN(C)C)c2cc2c3cc(OC(=O)OCCCC(=O)O)ccc3n(C)c12 | 167
* Cc1c2ccnc(C(=O)NCCN(C)C)c2cc2c3cc(OC(=O)N(C)C)ccc3n(C)c12 | 161
* Cc1c2ccnc(C(=O)NCCN(C)C)c2cc2c3cc(OCC(O)CO)ccc3n(C)c12 (centres undefined) | 129
* Cc1c2ccnc(C(=O)NCCN(C)C)c2cc2c3cc(OCCCCC(=O)O)ccc3n(C)c12 | 146

Alright, here's another compound for you.
-- ask Look up and report measured T/C for this entry: Cc1c2ccnc(C(=O)NCCN(C)C)c2cc2c3cc(OC(=O)N4CCOCC4)ccc3n(C)c12
-- reply 139

Origin of measurements: ChEMBL document CHEMBL1132144
